- PROCEDURE_DETAILS: Half life in mouse at 20 mg/kg, po
- Assay type: ADME, organism-based
- Set-up: dose 20 mg/kg, route oral
- STUDY_CONDITIONS: in vivo
MEASUREMENT_TYPE: half-life (h)

{"MOL": "CNC(=O)c1ccc(-c2cnc3cnc(C(=O)N(C)c4ccc(C#N)cc4)cn23)cc1", "REPORTED": 1.63}

P = CN(C(=O)c1cn2c(-c3ccc(-c4nnc(N)s4)cc3)cnc2cn1)c1ccc(C#N)cc1
Q = CN(C(=O)c1cn2c(-c3ccc(C(N)=O)cc3)cnc2cn1)c1ccc(F)cc1
[in] Endpoint returns the identifier whose half-life is numerically larger, either P or Q . // return label of chosen record
[out] P
(P: 3.39 h, Q: 1.35 h)

----------
- PROCEDURE_DETAILS: Solubility of the compound at pH 6.8 by HT-equilibrium solubility assay
- Type: physicochemical
- STUDY_CONDITIONS: buffer
MEASUREMENT_TYPE: solubility thermodynamic (µM)

1 = CN(C(=O)c1cn2c(-c3ccc(C(F)(F)F)cc3)cnc2cn1)c1ccc(C#N)cc1
2 = CNC(=O)c1ccc(-c2cnc3cnc(C(=O)N(C)c4ccc(Cl)cc4)cn23)cc1
3 = CN(C(=O)c1cn2c(-c3ccc(C(N)=O)cc3)cnc2cn1)c1ccc(F)cc1
4 = CNC(=O)c1ccc(-c2cnc3cnc(C(=O)N(C)c4ccc(C#N)cc4)cn23)cc1
[in] Sort the entries above by solubility thermodynamic, largest first. Show the ranking through the labels, in the order asked for.
[out] 2, 4, 3, 1

----------
- PROCEDURE_DETAILS: Volume of distribution at steady state in mouse at 5 mg/kg, iv
- Type: ADME, organism-based
- Design: dose 5 mg/kg, route intravenous
- STUDY_CONDITIONS: in vivo, read-out: Vdss
MEASUREMENT_TYPE: Vd (L/kg)

{"MOL": "CN(C(=O)c1cn2c(-c3ccc(-c4nnc(N)s4)cc3)cnc2cn1)c1ccc(C#N)cc1", "UNIT_DESCRIPTOR": "L/kg", "Vd": 0.99}
{"MOL": "CN(C(=O)c1cn2c(-c3ccc(C(N)=O)cc3)cnc2cn1)c1ccc(F)cc1", "UNIT_DESCRIPTOR": "L/kg", "Vd": 0.9}
{"MOL": "CNC(=O)c1ccc(-c2cnc3cnc(C(=O)N(C)c4ccc(C#N)cc4)cn23)cc1", "UNIT_DESCRIPTOR": "L/kg", "Vd": 1.02}
{"MOL": "CNC(=O)c1ccc(-c2cnc3cnc(C(=O)N(C)c4ccc(Cl)cc4)cn23)cc1", "UNIT_DESCRIPTOR": "L/kg", "Vd": 0.96}

----------
- PROCEDURE_DETAILS: Oral bioavailability in mouse at 20 mg/kg
- Type: ADME, organism-based
- STUDY_CONDITIONS: in vivo
MEASUREMENT_TYPE: bioavailability (%)

Solved cases (2 shown):
{"MOL": "CNC(=O)c1ccc(-c2cnc3cnc(C(=O)N(C)c4ccc(Cl)cc4)cn23)cc1", "bioavailability (%)": 60}
{"MOL": "CN(C(=O)c1cn2c(-c3ccc(C(N)=O)cc3)cnc2cn1)c1ccc(F)cc1", "bioavailability (%)": 51.6}

a = CNC(=O)c1ccc(-c2cnc3cnc(C(=O)N(C)c4ccc(C#N)cc4)cn23)cc1
b = CN(C(=O)c1cn2c(-c3ccc(-c4nnc(N)s4)cc3)cnc2cn1)c1ccc(C#N)cc1
[in] Endpoint returns the identifier whose bioavailability is numerically larger, either a or b . // return label of chosen record
[out] a

----------
- PROCEDURE_DETAILS: Cmax in mouse at 20 mg/kg, po
- Format: ADME, organism-based
- Parameters: dose 20 mg/kg, route oral
- STUDY_CONDITIONS: in vivo
MEASUREMENT_TYPE: Cmax (µM)

Solved cases (2 shown):
{"MOL": "CN(C(=O)c1cn2c(-c3ccc(-c4nnc(N)s4)cc3)cnc2cn1)c1ccc(C#N)cc1", "Cmax [µM]": 0.02}
{"MOL": "CNC(=O)c1ccc(-c2cnc3cnc(C(=O)N(C)c4ccc(Cl)cc4)cn23)cc1", "Cmax [µM]": 20.5}

I = CNC(=O)c1ccc(-c2cnc3cnc(C(=O)N(C)c4ccc(C#N)cc4)cn23)cc1
II = CN(C(=O)c1cn2c(-c3ccc(C(N)=O)cc3)cnc2cn1)c1ccc(F)cc1
[in] Endpoint returns the identifier whose Cmax is numerically larger, either I or II . // return label of chosen record
[out] II
(II: 8.3 µM, I: 5.2 µM)

----------
- PROCEDURE_DETAILS: AUC in mouse at 20 mg/kg, po
- Format: ADME, organism-based
- Parameters: dose 20 mg/kg, route oral
- STUDY_CONDITIONS: plasma
MEASUREMENT_TYPE: AUC (µM·h)

{"MOL": "CNC(=O)c1ccc(-c2cnc3cnc(C(=O)N(C)c4ccc(Cl)cc4)cn23)cc1", "REPORTED": 31.2}
{"MOL": "CNC(=O)c1ccc(-c2cnc3cnc(C(=O)N(C)c4ccc(C#N)cc4)cn23)cc1", "REPORTED": 12.4}

P = CN(C(=O)c1cn2c(-c3ccc(C(N)=O)cc3)cnc2cn1)c1ccc(F)cc1
Q = CN(C(=O)c1cn2c(-c3ccc(-c4nnc(N)s4)cc3)cnc2cn1)c1ccc(C#N)cc1
[in] Endpoint returns the identifier whose AUC is numerically larger, either P or Q . // return label of chosen record
[out] P
(P: 11.1 µM·h, Q: 0.12 µM·h)

----------
- PROCEDURE_DETAILS: Half life in mouse liver microsomes by LC/MS analysis
- Assay type: ADME
MEASUREMENT_TYPE: half-life (h)

Solved cases (2 shown):
{"MOL": "CN(C(=O)c1cn2c(-c3ccc(C(N)=O)cc3)cnc2cn1)c1ccc(F)cc1", "half-life, h": 0.95}
{"MOL": "CN(C(=O)c1cn2c(-c3ccc(C(F)(F)F)cc3)cnc2cn1)c1ccc(C#N)cc1", "half-life, h": 1.37}

I = CNC(=O)c1ccc(-c2cnc3cnc(C(=O)N(C)c4ccc(Cl)cc4)cn23)cc1
II = CNC(=O)c1ccc(-c2cnc3cnc(C(=O)N(C)c4ccc(C#N)cc4)cn23)cc1
[in] Endpoint returns the identifier whose half-life is numerically larger, either I or II . // return label of chosen record
[out] II
(II: 2.08 h, I: 1.05 h)

----------
- PROCEDURE_DETAILS: Hepatic extraction ratio in mouse liver microsomes by LC/MS analysis
- Type: ADME
- STUDY_CONDITIONS: read-out: ERH
MEASUREMENT_TYPE: hepatic extraction ratio

{"MOL": "CNC(=O)c1ccc(-c2cnc3cnc(C(=O)N(C)c4ccc(C#N)cc4)cn23)cc1", "REPORTED": 0.33}
{"MOL": "CNC(=O)c1ccc(-c2cnc3cnc(C(=O)N(C)c4ccc(Cl)cc4)cn23)cc1", "REPORTED": 0.49}
{"MOL": "CN(C(=O)c1cn2c(-c3ccc(C(N)=O)cc3)cnc2cn1)c1ccc(F)cc1", "REPORTED": 0.52}
{"MOL": "CN(C(=O)c1cn2c(-c3ccc(C(F)(F)F)cc3)cnc2cn1)c1ccc(C#N)cc1", "REPORTED": 0.4}

----------
- System: Plasmodium falciparum
- PROCEDURE_DETAILS: Antiplasmodial activity against schizont blood stage Plasmodium falciparum
- Type: functional, organism-based
MEASUREMENT_TYPE: IC50 (µM)

Solved cases (3 shown):
{"MOL": "CN(C(=O)c1cn2c(-c3ccc(C(N)=O)cc3)cnc2cn1)c1ccc(F)cc1", "REPORTED": 0.056}
{"MOL": "CN(C(=O)c1cn2c(-c3ccc(C(F)(F)F)cc3)cnc2cn1)c1ccc(C#N)nc1", "REPORTED": 1.63}
{"MOL": "CN(C(=O)c1cn2c(-c3ccc(C(F)(F)F)cc3)cnc2cn1)c1ccc(C#N)cc1", "REPORTED": 0.063}

a = CNC(=O)c1ccc(-c2cnc3cnc(C(=O)N(C)c4ccc(Cl)cc4)cn23)cc1
b = CN(C(=O)c1cn2c(-c3ccc(-c4ccn[nH]4)cc3)cnc2cn1)c1ccc(C#N)cc1
[in] Endpoint returns the identifier whose IC50 is numerically larger, either a or b . // return label of chosen record
[out] a
(a: 0.058 µM, b: 0.032 µM)

----------
- PROCEDURE_DETAILS: Half life in mouse at 5 mg/kg, iv
- Assay type: ADME, organism-based
- Set-up: dose 5 mg/kg, route intravenous
- STUDY_CONDITIONS: in vivo
MEASUREMENT_TYPE: half-life (min)

Solved cases (2 shown):
{"MOL": "CN(C(=O)c1cn2c(-c3ccc(-c4nnc(N)s4)cc3)cnc2cn1)c1ccc(C#N)cc1", "half-life, min": 127}
{"MOL": "CN(C(=O)c1cn2c(-c3ccc(C(N)=O)cc3)cnc2cn1)c1ccc(F)cc1", "half-life, min": 37.2}

a = CNC(=O)c1ccc(-c2cnc3cnc(C(=O)N(C)c4ccc(Cl)cc4)cn23)cc1
b = CNC(=O)c1ccc(-c2cnc3cnc(C(=O)N(C)c4ccc(C#N)cc4)cn23)cc1
[in] Field: lower half-life | Options: a / b // return label of chosen record
[out] b

Data provenance: ChEMBL document CHEMBL3352748
